Assay: basic pKa value
Type: physicochemical
resultType: pKa

[a] CN(C(=O)C(C)(C)c1cc(C(F)(F)F)cc(C(F)(F)F)c1)c1cnc(N2CCOCC2)cc1-c1ccccc1Cl [Compound 2]
[b] Cc1ccccc1-c1cc(N2CCN(C)CC2)ncc1N(C)C(=O)C(C)(C)c1cc(C(F)(F)F)cc(C(F)(F)F)c1 [Compound 1]
**Q:** Which has the higher pKa, a or b ? I would appreciate it if you answered with the label of your choice.
**A:** b

Sourced from patent US20110162437A1
